ASSAY TARGET: Brainiac β1-3-N-acetylglucosaminyltransferase (Drosophila melanogaster, UniProt Q24157)
Construct: The full coding region of Brainiac was prepared by PCR using genomic DNA; made in house; host or cells: High Five insect cells (baculovirus vector pVL1393); microsomal fractions
Sequence (Q24157 whole entry): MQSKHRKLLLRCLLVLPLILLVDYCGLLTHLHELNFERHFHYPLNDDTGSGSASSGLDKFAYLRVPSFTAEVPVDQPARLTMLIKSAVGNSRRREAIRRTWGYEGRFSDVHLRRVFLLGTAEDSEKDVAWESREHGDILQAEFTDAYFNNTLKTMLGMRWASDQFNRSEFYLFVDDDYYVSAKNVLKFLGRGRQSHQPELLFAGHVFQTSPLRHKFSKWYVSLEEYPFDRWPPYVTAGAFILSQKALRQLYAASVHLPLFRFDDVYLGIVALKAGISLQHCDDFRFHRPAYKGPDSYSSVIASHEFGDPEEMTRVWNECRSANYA
PROTOCOL TEXT: Substrate specificities of Brainiac β1-3-N-acetylglucosaminyltransferase (acceptor panel, microsomal preparations)
Format: biochemical
APPLIED CONDITIONS: substrate 2 mM; microsomes of pVL-Brainiac infected High Five cells; background of irrelevant construct subtracted; donor UDP-GlcNAc
Mark true (1) for reported Brainiac activity with substrate of 0.4 nmol/h/mg or greater; mark false (0) for anything smaller.

// below: answered compounds
- COMPOUND: "CO[C@H]1O[C@H](CO)[C@@H](O)[C@H](O)[C@@H]1O[C@@H]1O[C@H](CO)[C@@H](O)[C@H](O)[C@@H]1O"
  CAT: "false (0)"
- COMPOUND: "OC[C@H]1OC(O)[C@H](O)[C@@H](O)[C@H]1O (stereo partly shown)"
  CAT: "false (0)"
- COMPOUND: "OC[C@H]1O[C@@H](O[C@H]2[C@H](O)[C@@H](O)C(O)O[C@@H]2CO)[C@H](O)[C@@H](O)[C@H]1O (stereo partly shown)"
  CAT: "true (1)"
- COMPOUND: "CC(=O)N[C@H]1[C@H](O[C@H]2[C@@H](O)[C@@H](CO)O[C@@H](O[C@H]3[C@H](O)[C@@H](O)C(O)O[C@@H]3CO)[C@@H]2O)O[C@H](CO)[C@@H](O)[C@@H]1O[C@@H]1O[C@H](CO)[C@H](O)[C@H](O)[C@H]1O (stereo partly shown)"
  CAT: "false (0)"
- COMPOUND: "Cc1cc(=O)oc2cc(O[C@H]3O[C@H](CO)[C@@H](O)[C@H](O)[C@@H]3O)ccc12"
  CAT: "false (0)"
- COMPOUND: "Cc1cc(=O)oc2cc(O[C@@H]3O[C@H](CO)[C@H](O)[C@H](O)[C@H]3O)ccc12"
  CAT: "false (0)"
- COMPOUND: "OC[C@H]1O[C@@H](O[C@H]2[C@H](O)[C@H](O)C(O)O[C@@H]2CO)[C@H](O)[C@@H](O)[C@H]1O (stereo partly shown)"
  CAT: "true (1)"
- COMPOUND: "OC[C@H]1O[C@@H](O[C@@H]2[C@H](O)[C@@H](O)C(O)O[C@@H]2CO)[C@H](O)[C@@H](O)[C@H]1O (stereo partly shown)"
  CAT: "false (0)"
- COMPOUND: "Cc1cc(=O)oc2cc(O[C@@H]3O[C@H](CO)[C@@H](O)[C@H](O)[C@@H]3O)ccc12"
  CAT: "true (1)"
- COMPOUND: "CO[C@@H]1O[C@H](CO)[C@@H](O)[C@H](O)[C@@H]1O"
  CAT: "true (1)"

Please indicate if the recorded Brainiac activity with substrate for CC(=O)N[C@@H]1C(O)O[C@H](CO)[C@@H](O[C@@H]2O[C@H](CO)[C@H](O)[C@H](O)[C@H]2O)[C@@H]1O (stereo partly shown) meets or exceeds 0.4 nmol/h/mg.
false (0)

Please indicate if the recorded Brainiac activity with substrate for COC1OC(CO)C(O)C(O)C1O (stereo not shown) meets or exceeds 0.4 nmol/h/mg.
false (0)

Please indicate if the recorded Brainiac activity with substrate for `Cc1cc(=O)oc2cc(O[C@@H]3O[C@@H](C)[C@@H](O)[C@@H](O)[C@@H]3O)ccc12` meets or exceeds 0.4 nmol/h/mg.
false (0)
